Tested on: T1, human CD20 (human, UniProt P11836 1-297)
T1 construct: whole, on cells; also called cell surface CD20
T1 sequence (looked up): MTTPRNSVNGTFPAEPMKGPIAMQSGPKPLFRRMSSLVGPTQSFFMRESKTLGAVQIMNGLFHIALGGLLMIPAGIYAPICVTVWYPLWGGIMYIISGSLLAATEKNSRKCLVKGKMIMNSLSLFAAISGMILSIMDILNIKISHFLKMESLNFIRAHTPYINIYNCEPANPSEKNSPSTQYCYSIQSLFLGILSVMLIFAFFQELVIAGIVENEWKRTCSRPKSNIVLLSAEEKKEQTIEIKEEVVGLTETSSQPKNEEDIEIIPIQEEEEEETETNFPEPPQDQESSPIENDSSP
Method notes: indirect immunofluorescence, flow cytometry, human blood B cells, saturating mAb
Endpoint: mean linear fluorescence intensity

For orientation, consider the following solved cases.
| Binder | mean linear fluorescence intensity |
| --- | --- |
| HB20-4 monoclonal antibody (antibody, V domains shown, Used as tissue culture supernatant; also called HB20-04; HB13d) VH: EVQLQESGAELVKPGASVKMSCKASGFTFTNYNMHWVKQTPGQGLEWIGAIYPENGDTSYNQRFKGKATLTADKSSSTAYMHLSSLTSEDTAVYFCARFYYYGSYYGALDYWGQGTSVTVSS VL: DIQMTQSPASLSASVGETVTITCRASGSIHNYLAWYQQKLGKSPQLLVYNAKTLADGVPSRFSGSGSGTQFSLKINSLQPEDFGSYYCQHFWSIPWTFGGGTKLEIKR | 397 mean linear fluorescence intensity |
| 1H4 (IgG2a) anti-CD20 monoclonal antibody (antibody) chain 1: QVQLQQPGAELVKPGASVKMSCKTSGYTFTSYNVHWVKQTPGQGLEWIGAIYPGNGDTSFNQKFKGKATLTADKSSSTVYMQLSSLTSEDSAVYYCARSNYYGSSYVWFFDVWGAGTTGTGSS chain 2: QIVLSQSPTILSASPGEKVTMTCRASSSVSYMDWYQQKPGSSPKPWIYATSNLASGVPARFSGSGSGTSYSLTISRVEAEDAATYYCQQWISNPPTFGAGTKLELK | 75 mean linear fluorescence intensity |

// below: mean linear fluorescence intensity requested for another binder
mean linear fluorescence intensity measured on 1F5 anti-CD20 monoclonal antibody (antibody, V domains shown) VH: QVQLRQPGAELVKPGASVKMSCKASGYTFTSYNMHWVKQTPGQGLEWIGAIYPGNGDTSYNQKFKGKATLTADKSSSTAYMQLSSLTSEDSAVYYCARSHYGSNYVDYFDYWGQGTTLTVSS VL: DIVLSQSPAILSASPGEKVTMTCRASSSLSFMHWYQQKPGSSPKPWIYATSNLASGVPARFSGSGSGTSYSLTISRVEAEDAATYFCHQWSSNPLTFGAGTKLELK = 104 mean linear fluorescence intensity
